assayed target: tiTac3rb (Oreochromis niloticus)
Sequence (A0A075QUD7 1-361): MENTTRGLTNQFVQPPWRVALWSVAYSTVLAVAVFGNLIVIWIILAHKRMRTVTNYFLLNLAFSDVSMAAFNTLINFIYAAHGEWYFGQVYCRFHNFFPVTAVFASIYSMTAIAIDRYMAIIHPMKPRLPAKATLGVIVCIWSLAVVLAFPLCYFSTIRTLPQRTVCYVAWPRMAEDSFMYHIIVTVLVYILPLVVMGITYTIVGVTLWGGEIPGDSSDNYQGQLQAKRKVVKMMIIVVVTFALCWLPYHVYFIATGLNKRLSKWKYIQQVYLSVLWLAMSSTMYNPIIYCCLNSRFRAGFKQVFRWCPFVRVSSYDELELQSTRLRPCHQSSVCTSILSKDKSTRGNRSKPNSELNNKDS
measurement protocol: cell-based
experimental conditions: EC50 tiTac3rb CRE, CRE-Luc reporter (PKA/cAMP), COS-7 cells, mean ± SEM
Starred links: 1 amine or outer side, 2 acyl side, 3 side chain; linkers in the order of their positions; H or OH if unused. Non-standard residues stand in square brackets, D forms with d. Residues, ends and D or L forms follow the SMILES beside them. NMeF = CN[C@@H](Cc1ccccc1)C(=O)O; NMeI = CC[C@H](C)[C@H](NC)C(=O)O; pGlu = O=C1CC[C@@H](C(=O)O)N1; Suc = O=C(CCC(=O)[*:2])[*:1]
observed property: EC50 (nM)
Use nM as the unit, but write only the number.

// solved cases for EC50 follow
molecule	unit spec	EC50
CC[C@H](C)[C@H](NC(=O)[C@H](CC(=O)O)NC(=O)CCC(=O)O)C(=O)N[C@@H](Cc1ccccc1)C(=O)N(C)[C@H](C(=O)NCC(=O)N[C@@H](CC(C)C)C(=O)N[C@@H](CCSC)C(N)=O)[C@@H](C)CC [tiNKB analog] (Suc-DIF[NMeI]GLM-NH2)	nM	6.88
CSCC[C@H](NC(=O)[C@H](CC(C)C)NC(=O)CNC(=O)[C@@H](NC(=O)[C@H](Cc1ccccc1)NC(=O)[C@H](CO)NC(=O)[C@H](CC(=O)O)NC(=O)[C@H](Cc1ccc(O)cc1)NC(=O)[C@H](CC(=O)O)NC(=O)[C@H](CC(C)C)NC(=O)[C@H](CC(=O)O)NC(=O)[C@H](CC(N)=O)NC(=O)[C@@H](N)Cc1ccc(O)cc1)C(C)C)C(N)=O [tiNKF] (H-YNDLDYDSFVGLM-NH2)	nM	2.13
CSCC[C@H](NC(=O)[C@H](CC(C)C)NC(=O)CNC(=O)[C@H](C(C)C)N(C)C(=O)[C@H](Cc1ccccc1)NC(=O)[C@H](CO)NC(=O)[C@H](CC(=O)O)NC(=O)CCC(=O)O)C(N)=O [NKF analog]	nM	161

GET /values?readout=EC50&item= CSCC[C@H](NC(=O)[C@H](CC(C)C)NC(=O)CNC(=O)[C@H](Cc1ccccc1)N(C)C(=O)[C@H](Cc1ccccc1)NC(=O)[C@H](CC(=O)O)NC(=O)CCC(=O)O)C(N)=O [Senktide] (Suc-DF[NMeF]GLM-NH2)
3540

GET /values?readout=EC50&item= CC[C@H](C)[C@H](NC(=O)[C@H](Cc1ccccc1)NC(=O)[C@@H](NC(=O)[C@H](CC(=O)O)NC(=O)[C@H](CC(=O)O)NC(=O)[C@H](CCSC)NC(=O)[C@@H]1CCC(=O)N1)[C@@H](C)CC)C(=O)NCC(=O)N[C@@H](CC(C)C)C(=O)N[C@@H](CCSC)C(N)=O [tiNKB] ([pGlu]MDDIFIGLM-NH2)
26.5
